All figures here come from the supplement of paper PMC9732359.

Assay: protein stability index of a GFP-peptide fusion (yeast GPS) (PSI 1-4); higher = more stable; sorted into four equal gates, so the index is relative within each strain
Details: ubr1∆
observed-property: protein stability index
Just the number, please, no unit after it.

KNRRRIHGELKTYKEGI [SMC1]; 3.18
SELAPIEEHPTVVDAID [IRR1]; 3.05
PGFQLPNRITLTDHRKE [SRB8]; 3.22
PPPPPPSNFEINAEEIV [PRP8]; 2.9
EKFSPKSFISKLLGIGD [SRP54]; 3.21

## Task Item TSNGLKKNPNWLEEYHP [FAS1] : provide protein stability index
## Result 3.38

## Task Item LKIQFILSTTLDPTDDE [SIN4] : provide protein stability index
## Result 2.81

## Task Item KTMIKTIEKDKMKIQET [SMC2] : provide protein stability index
## Result 2.04

## Task Item TFLPSYMKFSNKYLELC [RRI2] : provide protein stability index
## Result 2.37

## Task Item QDNKQLYQIWIVMVWLK [YDL116W/NUP84] : provide protein stability index
## Result 2.78

## Task Item ETPEGQACGLVKNLSLM [RPB2] : provide protein stability index
## Result 3.03

## Task Item QNTSNMNAGGLFGAKPQ [YGR119C/NUP57] : provide protein stability index
## Result 2.17

## Task Item LYKLNDKIAVAVAGLTA [PRE9] : provide protein stability index
## Result 2.31

## Task Item ESQYPIVTEQPSAEIRE [SWP82] : provide protein stability index
## Result 2.56

## Task Item NFEKILLTCYELEKKYH [SRB8] : provide protein stability index
## Result 3.71

## Task Item EVTIEDALKVVLRTALV [RPS12] : provide protein stability index
## Result 3.11

## Task Item ISRNGDTSYKIDGKTVS [SMC1] : provide protein stability index
## Result 3.29

## Task Item TITTILILGLNTSIAQF [YML103C/NUP188] : provide protein stability index
## Result 2.28

## Task Item LLETKLRQQYEIELKKL [SWI1] : provide protein stability index
## Result 2.92

## Task Item TKPEVASDMSDEDIITI [CDC53] : provide protein stability index
## Result 2.92

## Task Item FEYLATVMYQRRSKMNP [PRE4] : provide protein stability index
## Result 2.57
